- tested.target: T1, 4H662-AA
- T1 chain: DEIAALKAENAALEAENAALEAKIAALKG
- test.description: two-hybrid library CCmax;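 note: natural log of median RNA to DNA barcode read ratio; higher means stronger binding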
- recorded.conditions: mean of both orientations
parameter: interaction score

INSERT INTO results (binder, parameter, number) VALUES
  ('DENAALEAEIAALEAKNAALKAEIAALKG [4H1082-AA]', 'interaction score', -0.82),
  ('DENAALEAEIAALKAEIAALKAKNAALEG [4H1103-AA]', 'interaction score', -1.27),
  ('DEIAALEAKIAALKAEIAALEAKNAALEG [4H327-AA]', 'interaction score', -1.42);

a: DEIAALEAEIAALEAKNAALEAKNAALEG [4H55-AA]
b: DEIAALEAKNAALKAKIAALEAEIAALEG [4H481-AA]
c: DKIAALKAENAALEAKIAALEAKIAALKG [4H2726-AA]
Thanks in advance: please rank these 3 entries by interaction score, highest to lowest. Use the labels to give the requested order.
b, c, a
